- tested.system: Protein farnesyltransferase (Homo sapiens, UniProt P49354+P49356)
- method.notes: Inhibition of Farnesyltransferase catalyzed transfer of the FPP moiety to dansyl-GCVLS
pIC50: −log10 of the molar value.
property.name: pIC50

compound: COC(=O)[C@H](CCSC)N(C(=O)c1ccccc1)C1CCN(Cc2cscn2)CC1
tested.system: Protein farnesyltransferase (Homo sapiens, UniProt P49354+P49356)
pIC50: 4.38
//
compound: COC(=O)[C@H](CCSC)N(C(=O)c1ccccc1)C1CCN(Cc2c[nH]cn2)CC1
tested.system: Protein farnesyltransferase (Homo sapiens, UniProt P49354+P49356)
pIC50: 4.79
//
compound: COC(=O)[C@H](CCSC)N(C(=O)c1ccccc1)C1CCN(C(=O)C(N)CS)CC1 (some centres undefined)
tested.system: Protein farnesyltransferase (Homo sapiens, UniProt P49354+P49356)
pIC50: 7.70
//
compound: COC(=O)[C@H](CCSC)N(C(=O)c1ccccc1)C1CCN(C(=O)c2cscn2)CC1
tested.system: Protein farnesyltransferase (Homo sapiens, UniProt P49354+P49356)
pIC50: 4.28
//
compound: CSCC[C@H](NC(=O)c1ccc(NC(=O)[C@@H](N)CS)cc1)C(=O)O
tested.system: Protein farnesyltransferase (Homo sapiens, UniProt P49354+P49356)
pIC50: 7.14

a. CSCCC(NC(=O)[C@H](Cc1ccccc1)NCC[C@@H](C)CNC[C@H](N)CSC)C(=O)O (some centres undefined)
b. COC(=O)[C@H](CCSC)N(C(=O)c1ccccc1)C1CCN(C(=O)[C@@H]2CSCN2)CC1
Q: Larger number for pIC50: a , or b ? Answer with the label corresponding to your selection.
A: a
